target: Serine/threonine-protein kinase SCH9 (Saccharomyces cerevisiae (strain ATCC 204508 / S288c)) (UniProt P11792); assay: Sch9 T570 phosphorylation inhibition in yeast, SAR follow-up, mechanism study for yeast TOR pathway modulator project, cell-based, HA-Sch9, immunoblot (AID 504478); conditions: S. cerevisiae HA-Sch9, T570 phospho immunoblot, 30 min
Sequence (P11792 whole entry, looked up): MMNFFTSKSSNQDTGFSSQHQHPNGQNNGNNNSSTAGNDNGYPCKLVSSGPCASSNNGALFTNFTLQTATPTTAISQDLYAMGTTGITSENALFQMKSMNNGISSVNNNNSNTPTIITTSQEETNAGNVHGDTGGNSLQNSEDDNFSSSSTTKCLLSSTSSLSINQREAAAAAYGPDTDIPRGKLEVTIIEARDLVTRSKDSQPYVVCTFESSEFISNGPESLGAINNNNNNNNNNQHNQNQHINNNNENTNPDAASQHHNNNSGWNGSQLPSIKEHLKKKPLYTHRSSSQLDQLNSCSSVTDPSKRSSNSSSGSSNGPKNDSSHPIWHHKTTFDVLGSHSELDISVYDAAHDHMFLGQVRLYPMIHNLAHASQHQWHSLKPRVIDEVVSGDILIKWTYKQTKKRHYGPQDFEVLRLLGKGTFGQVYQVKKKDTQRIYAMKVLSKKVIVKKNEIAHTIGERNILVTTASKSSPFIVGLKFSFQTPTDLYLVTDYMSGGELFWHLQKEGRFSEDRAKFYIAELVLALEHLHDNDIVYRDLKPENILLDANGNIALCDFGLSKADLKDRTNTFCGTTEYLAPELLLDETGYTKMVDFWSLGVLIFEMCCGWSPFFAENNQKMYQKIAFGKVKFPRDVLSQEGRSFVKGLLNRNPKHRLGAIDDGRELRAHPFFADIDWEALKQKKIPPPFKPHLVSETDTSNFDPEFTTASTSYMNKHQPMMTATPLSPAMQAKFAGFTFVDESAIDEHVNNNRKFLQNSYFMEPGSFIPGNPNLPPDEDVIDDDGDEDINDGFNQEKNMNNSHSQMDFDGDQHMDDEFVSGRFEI
Observed Property: pIC50
Give bare numbers, as −log10 of the molar value.

Looking up CNc1nc(N)c([N+](=O)[O-])c(Nc2cccc(F)c2)n1 , I see its pIC50 listed as 5.35
